Measured Purity, T = 2 wk, listed per entry for reference.
assay-summary: Solid state (thermolytic) stability of TBR-760 salt forms, open container, UPLC peak purity and appearance
Format: physicochemical
condition-details: UPLC peak purity, 25° C. at 60% RH, open container, 2 wk
Structures can show the parent of a compound that is named as a salt.

compound	Purity, T = 2 wk
CCCN1C[C@H](CSCC(=O)NCCCC[C@@H](NC(=O)CSC[C@@H]2C[C@@H]3c4cccc5[nH]cc(c45)C[C@H]3N(CCC)C2)C(=O)N[C@H]2CSSC[C@@H](C(=O)N[C@H](C(N)=O)[C@@H](C)O)NC(=O)[C@H](CC)NC(=O)[C@H](CCCCN)NC(=O)[C@@H](Cc3c[nH]c4ccccc34)NC(=O)[C@H](Cc3ccc(O)cc3)NC2=O)C[C@@H]2c3cccc4[nH]cc(c34)C[C@H]21 [TBR-760 acetate]	98.16
CCCN1C[C@H](CSCC(=O)NCCCC[C@@H](NC(=O)CSC[C@@H]2C[C@@H]3c4cccc5[nH]cc(c45)C[C@H]3N(CCC)C2)C(=O)N[C@H]2CSSC[C@@H](C(=O)N[C@H](C(N)=O)[C@@H](C)O)NC(=O)[C@H](CC)NC(=O)[C@H](CCCCN)NC(=O)[C@@H](Cc3c[nH]c4ccccc34)NC(=O)[C@H](Cc3ccc(O)cc3)NC2=O)C[C@@H]2c3cccc4[nH]cc(c34)C[C@H]21 [TBR-760 tosylate]	98.01
CCCN1C[C@H](CSCC(=O)NCCCC[C@@H](NC(=O)CSC[C@@H]2C[C@@H]3c4cccc5[nH]cc(c45)C[C@H]3N(CCC)C2)C(=O)N[C@H]2CSSC[C@@H](C(=O)N[C@H](C(N)=O)[C@@H](C)O)NC(=O)[C@H](CC)NC(=O)[C@H](CCCCN)NC(=O)[C@@H](Cc3c[nH]c4ccccc34)NC(=O)[C@H](Cc3ccc(O)cc3)NC2=O)C[C@@H]2c3cccc4[nH]cc(c34)C[C@H]21 [TBR-760 sulfate]	97.34
CCCN1C[C@H](CSCC(=O)NCCCC[C@@H](NC(=O)CSC[C@@H]2C[C@@H]3c4cccc5[nH]cc(c45)C[C@H]3N(CCC)C2)C(=O)N[C@H]2CSSC[C@@H](C(=O)N[C@H](C(N)=O)[C@@H](C)O)NC(=O)[C@H](CC)NC(=O)[C@H](CCCCN)NC(=O)[C@@H](Cc3c[nH]c4ccccc34)NC(=O)[C@H](Cc3ccc(O)cc3)NC2=O)C[C@@H]2c3cccc4[nH]cc(c34)C[C@H]21 [TBR-760 mesylate]	98.14
